# MEASURED TARGET: T1, IL-18 receptors on HEK-Blue IL-18 reporter cells (UniProt Q13478 19-541; O95256 20-599, limits assumed); also: unit not given here
# T1 sequence (looked up) 1: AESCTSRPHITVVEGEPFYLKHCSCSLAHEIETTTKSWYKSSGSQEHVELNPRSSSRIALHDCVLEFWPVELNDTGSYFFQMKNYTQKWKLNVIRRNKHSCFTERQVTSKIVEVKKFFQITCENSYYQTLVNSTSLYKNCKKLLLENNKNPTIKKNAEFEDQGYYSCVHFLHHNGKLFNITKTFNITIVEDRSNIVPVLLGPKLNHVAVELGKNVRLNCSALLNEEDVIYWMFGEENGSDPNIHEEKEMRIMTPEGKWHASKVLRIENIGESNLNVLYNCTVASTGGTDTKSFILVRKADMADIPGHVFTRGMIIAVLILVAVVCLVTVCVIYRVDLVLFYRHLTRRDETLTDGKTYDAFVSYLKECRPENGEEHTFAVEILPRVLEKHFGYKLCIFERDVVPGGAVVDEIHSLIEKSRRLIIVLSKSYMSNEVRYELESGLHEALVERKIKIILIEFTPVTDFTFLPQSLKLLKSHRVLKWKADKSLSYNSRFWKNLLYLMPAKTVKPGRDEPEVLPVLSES
# T1 sequence (looked up) 2: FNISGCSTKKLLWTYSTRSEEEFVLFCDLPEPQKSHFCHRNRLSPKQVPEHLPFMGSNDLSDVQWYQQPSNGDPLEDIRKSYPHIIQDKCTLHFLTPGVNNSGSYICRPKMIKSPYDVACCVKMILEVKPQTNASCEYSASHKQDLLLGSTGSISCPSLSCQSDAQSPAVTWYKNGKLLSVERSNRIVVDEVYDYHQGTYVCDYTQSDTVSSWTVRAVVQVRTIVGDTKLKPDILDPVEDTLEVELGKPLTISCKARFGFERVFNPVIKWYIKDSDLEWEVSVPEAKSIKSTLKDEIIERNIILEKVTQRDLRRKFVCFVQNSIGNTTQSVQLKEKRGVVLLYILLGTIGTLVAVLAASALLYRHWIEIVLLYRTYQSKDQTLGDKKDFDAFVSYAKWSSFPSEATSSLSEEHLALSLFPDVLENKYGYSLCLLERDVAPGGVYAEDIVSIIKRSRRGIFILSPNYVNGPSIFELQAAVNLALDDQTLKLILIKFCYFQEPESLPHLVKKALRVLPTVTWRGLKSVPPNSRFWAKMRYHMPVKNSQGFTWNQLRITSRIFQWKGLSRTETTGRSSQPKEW
# PROTOCOL NOTES: cell-based or functional assay
Respond with 1 for HEK-Blue activity, No BP, DF-100,000 values of 0.1 and above, -1 for values below.

{"BINDER": "IL-18 variant S36Q, D40T, K53P, S55L (ligand) YFGKLESKLSVIRNLNDQVLFIDQGNRPLFEDMTDQDMRTNAPRTIFIISMYPDLQPRGMAVTISVKSEKISTLSSENKIISFKEMNPPDNIKDTKSDIIFFQRSVPGHDNKMQFESSSYEGYFLASEKERDLFKLILKKEDELGDRSIMFTVQNED", "CLASSIFICATION": 1}
{"BINDER": "IL-18 variant K53V, S55Q (ligand) YFGKLESKLSVIRNLNDQVLFIDQGNRPLFEDMTDSDMRDNAPRTIFIISMYVDQQPRGMAVTISVKSEKISTLSSENKIISFKEMNPPDNIKDTKSDIIFFQRSVPGHDNKMQFESSSYEGYFLASEKERDLFKLILKKEDELGDRSIMFTVQNED", "CLASSIFICATION": 1}
{"BINDER": "IL-18 variant T34M, S36T, D37E, D40T, N41M, K53T, S55W (ligand) YFGKLESKLSVIRNLNDQVLFIDQGNRPLFEDMMDTEMRTMAPRTIFIISMYTDWQPRGMAVTISVKSEKISTLSSENKIISFKEMNPPDNIKDTKSDIIFFQRSVPGHDNKMQFESSSYEGYFLASEKERDLFKLILKKEDELGDRSIMFTVQNED", "CLASSIFICATION": 1}
{"BINDER": "IL-18 variant K53D, S55Q, P107M (ligand) YFGKLESKLSVIRNLNDQVLFIDQGNRPLFEDMTDSDMRDNAPRTIFIISMYDDQQPRGMAVTISVKSEKISTLSSENKIISFKEMNPPDNIKDTKSDIIFFQRSVMGHDNKMQFESSSYEGYFLASEKERDLFKLILKKEDELGDRSIMFTVQNED", "CLASSIFICATION": 1}
{"BINDER": "IL-18 variant K53S, S55F, T63S, R104K, H109Y (ligand) YFGKLESKLSVIRNLNDQVLFIDQGNRPLFEDMTDSDMRDNAPRTIFIISMYSDFQPRGMAVSISVKSEKISTLSSENKIISFKEMNPPDNIKDTKSDIIFFQKSVPGYDNKMQFESSSYEGYFLASEKERDLFKLILKKEDELGDRSIMFTVQNED", "CLASSIFICATION": -1}
{"BINDER": "IL-18 variant K8R, L9G, S10C, K53G, S55A, R104G (ligand) YFGKLESRGCVIRNLNDQVLFIDQGNRPLFEDMTDSDMRDNAPRTIFIISMYGDAQPRGMAVTISVKSEKISTLSSENKIISFKEMNPPDNIKDTKSDIIFFQGSVPGHDNKMQFESSSYEGYFLASEKERDLFKLILKKEDELGDRSIMFTVQNED", "CLASSIFICATION": 1}
{"BINDER": "IL-18 variant T34N, S36Y, D37E, D40Q, N41Q, K53D, S55D (ligand) YFGKLESKLSVIRNLNDQVLFIDQGNRPLFEDMNDYEMRQQAPRTIFIISMYDDDQPRGMAVTISVKSEKISTLSSENKIISFKEMNPPDNIKDTKSDIIFFQRSVPGHDNKMQFESSSYEGYFLASEKERDLFKLILKKEDELGDRSIMFTVQNED", "CLASSIFICATION": -1}
{"BINDER": "IL-18 variant K53S, S55Y, P107M (ligand) YFGKLESKLSVIRNLNDQVLFIDQGNRPLFEDMTDSDMRDNAPRTIFIISMYSDYQPRGMAVTISVKSEKISTLSSENKIISFKEMNPPDNIKDTKSDIIFFQRSVMGHDNKMQFESSSYEGYFLASEKERDLFKLILKKEDELGDRSIMFTVQNED", "CLASSIFICATION": 1}
{"BINDER": "IL-18 variant S36E, D37E, D40V, N41S, K53Y, S55V, H109Y (ligand) YFGKLESKLSVIRNLNDQVLFIDQGNRPLFEDMTDEEMRVSAPRTIFIISMYYDVQPRGMAVTISVKSEKISTLSSENKIISFKEMNPPDNIKDTKSDIIFFQRSVPGYDNKMQFESSSYEGYFLASEKERDLFKLILKKEDELGDRSIMFTVQNED", "CLASSIFICATION": -1}
